- System: SNB-19 CNS
- assayNotes: NCI tumour cell line growth inhibition, 48 h
measuredProperty: TGI

1) Cc1cc(C)c2nc(Nc3nc(C)c(C)c(=O)[nH]3)nc(C)c2c1
14.3 µM
2) CSCC[C@@H](NC(=O)[C@H](CC(C)C)NC(=O)C(Cc1cnc[nH]1)NC(=O)CNC(=O)[C@@H](NC(=O)[C@H](C)NC(=O)[C@H](Cc1cn(C=O)c2ccccc12)NC(=O)[C@H](CCC(N)=O)NC(=O)[C@@H](N)CC(N)=O)C(C)C)C(N)=O (stereo partly drawn)
> 100 µM
3) NCCCCN(CCCN)C(=O)OCc1ccccc1
> 100 µM
4) Cc1ccc(N=c2oc3c(ccc4ccccc43)nc2Nc2ccc(C)cc2)cc1
> 100 µM

The compound COc1ccc(NC(=O)CC(=O)n2nc(-c3ccccc3)c(N=Nc3ccc(C)cc3)c2-c2ccccc2)cc1 on SNB-19 CNS: TGI was 49.4 µM
